target: human GST-p38 kinase alpha (Homo sapiens); construct: made in house; host or cells: E. coli DH10B; experiment: p38 kinase in vitro assay, second format, phosphorylation of EGFRP with 33P-ATP; type: biochemical; conditions: Table 6; EGFRP assay procedure; read-out: p38^2 (p38α in vitro assay, EGFRP assay procedure) IC50
Sequence (Q16539 whole entry): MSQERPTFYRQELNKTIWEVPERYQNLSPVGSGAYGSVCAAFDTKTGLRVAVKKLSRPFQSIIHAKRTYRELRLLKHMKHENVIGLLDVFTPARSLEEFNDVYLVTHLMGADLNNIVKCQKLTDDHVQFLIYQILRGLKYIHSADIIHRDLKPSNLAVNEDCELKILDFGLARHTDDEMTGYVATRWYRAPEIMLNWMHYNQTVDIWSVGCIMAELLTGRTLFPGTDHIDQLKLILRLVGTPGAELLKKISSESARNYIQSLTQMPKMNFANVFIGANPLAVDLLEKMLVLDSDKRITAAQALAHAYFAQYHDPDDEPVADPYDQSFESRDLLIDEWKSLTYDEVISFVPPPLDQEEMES
pIC50: −log10 of the molar value.
QUANTITY_MEASURED: pIC50

Request: pIC50, test system human GST-p38 kinase alpha (Homo sapiens), entry Fc1ccc(-c2[nH]ncc2-c2ccnc(NCCn3ccnc3)c2)cc1
> 8.00

* * *

biological target: human p38 kinase alpha (Homo sapiens, UniProt Q16539); construct: GST (N, cleaved yes); made in house; host or cells: E. coli DH10B; assay: p38 kinase in vitro assay, phosphorylation of biotinylated PHAS-I with 32P-ATP; type: biochemical; conditions: in vitro P38-alpha kinase; read-out: P38 alpha kinase IC50
Sequence (Q16539 whole entry): as above
QUANTITY_MEASURED: IC50 (nM)
Report the figure in nM without appending any unit label.

O=S(=O)(NCCCc1[nH]nc(-c2ccc(F)cc2)c1-c1ccncc1)c1ccc(F)cc1Cl [Example B-1254]
160
O=C(NCCCc1[nH]nc(-c2ccc(F)cc2)c1-c1ccncc1)NCCCN1CCCC1=O [Example B-1319]
240
Cc1ccc(C(=O)NCCCc2[nH]nc(-c3ccc(F)cc3)c2-c2ccncc2)cc1 [Example B-1323]
13
O=C(NCCCc1[nH]nc(-c2ccc(F)cc2)c1-c1ccncc1)c1c(F)cccc1F [Example B-1352]
13
O=S(=O)(c1ccccc1F)N1CCC(c2[nH]nc(-c3ccc(F)cc3)c2-c2ccncc2)CC1 [Example B-1377]
120
Cc1c(-c2ccncc2)c(-c2ccc(F)cc2)nn1CC(=O)NCC1CC1 [Example B-2276]
11500
Cc1c(-c2ccncc2)c(-c2ccc(F)cc2)nn1CC(=O)NCCCN1CCN(C)CC1 [Example B-2289]
3000
O=C(c1ccc(F)c(F)c1)N1CCC(c2[nH]nc(-c3ccc(F)cc3)c2-c2ccncc2)CC1 [Example B-1414]
25

Reported IC50, molecule CS(=O)(=O)c1ccc(CNC(=O)NCCCc2[nH]nc(-c3ccc(F)cc3)c2-c2ccncc2)cc1 [Example B-1312] : ____
350

Thanks! And COCCNC(=O)NCCCc1[nH]nc(-c2ccc(F)cc2)c1-c1ccncc1 [Example B-1311] ?
50

Thanks! And Cc1c(-c2ccncc2)c(-c2ccc(F)cc2)nn1CC(=O)NCCCCCCN(C)C [Example B-2287] ?
2560

Thanks! And O=S(=O)(c1ccc(F)cc1F)N1CCC(c2[nH]nc(-c3ccc(F)cc3)c2-c2ccncc2)CC1 [Example B-1454] ?
1600

Thanks! And O=C(NCCCc1[nH]nc(-c2ccc(F)cc2)c1-c1ccncc1)c1ccc(C(F)(F)F)cc1 [Example B-1356] ?
59

// data source = patent US6979686B1
